Some binders, each annotated with its measured koff.
# target.system: Recombinant human his-tagged IGF 1R extracellular domain protein (human) (UniProt P08069)
# run.description: SPR, captured IgG, IGF-1R ECD-his analyte, dissociation pH 6
Only the number, expressed in s⁻¹, is required.

Sample records with koff:
VRDN-02548 (antibody, V domains shown) VH: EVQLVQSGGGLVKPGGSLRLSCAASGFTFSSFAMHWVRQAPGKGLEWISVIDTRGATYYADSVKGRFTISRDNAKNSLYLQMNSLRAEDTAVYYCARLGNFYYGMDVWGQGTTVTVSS VL: EIVLTQSPGTLSVSPGERATLSCRASQSIGSSLHWYQQKPGQAPRLLIKYASQSLSGIPDRFSGSGSGTDFTLTISRLEPEDFAVYYCHQSHRLPHTFGQGTKVEIK; 1e-06
VRDN-02535 (antibody, V domains shown) VH: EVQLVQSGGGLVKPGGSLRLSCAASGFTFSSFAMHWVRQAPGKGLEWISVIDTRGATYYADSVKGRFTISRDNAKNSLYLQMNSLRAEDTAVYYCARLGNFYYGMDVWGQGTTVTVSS VL: EIVLTQSPGTLSVSPGERATLSCRASQSIGHSLHWYQQKPGQAPRLLIKYASQSLSGIPDRFSGSGSGTDFTLTISRLEPEDFAVYYCHQSSRLPHTFGQGTKVEIK; 1e-06

Q. Read the entry VRDN-02523 (antibody, V domains shown) VH: EVQLVQSGGGLVKPGGSLRLSCAASGFTFSSFAMHWVRQAPGKGLEWISVIDTRGATYYADSVKGRFTISRDNAKNSLYLQMNSLRAEDTAVYYCARLGNFYHGMDVWGQGTTVTVSS VL: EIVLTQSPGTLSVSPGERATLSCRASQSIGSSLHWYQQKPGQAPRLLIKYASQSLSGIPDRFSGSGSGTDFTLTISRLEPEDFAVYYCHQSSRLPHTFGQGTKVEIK and write its reported koff.
A. 1e-06
